Biological target: Spike S1 & S2 ECD (SARS-CoV-2)
Experiment: filter
Conditions: ThrdU at 23; other dU Tyr-dU; dC Nap-dC; SB18T0.01, 37 C
observation-type: pKd
pKd field: float, defined as -log10 of concentration (mol/L).

// query # get_value(readout='pKd', item= GGGANANNANGNGNNNGANNGNNNGGANG [26874-29_105] )
// result 9.10

----------
Target: Spike S1 & S2 ECD (SARS-CoV-2) (UniProt P0DTC2)
Assay: filter
Conditions: TrpdU at 23; other dU Tyr-dU; dC Nap-dC; SB18T0.01, 37 C
observation-type: Kd (pM)
Give your result in pM as a bare value.

// query Using the record for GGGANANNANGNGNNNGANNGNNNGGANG [26874-29_64] , report its Kd.
// result 270
